Values compiled from the EternaBench riboswitch data.

System: MS2 coat protein
experiment description: apparent Kd, MS2 coat protein; higher = weaker binding; RNA-MaP array; FMN 200 µM where present
reported conditions: ligand present: flavin mononucleotide; designed as: OFF switch for flavin mononucleotide
apparent Kd for assorted sequences
Give just the numeric value; nM need not be written.

Here are 5 sequences together with their reported answers.
[
  {
    "chain": "UUCCUGUCAGGAUAUGACUAGAUGCACGUUAGUGUGUUUACUUAGAAGGGACAUGAGGAUCACCCAUGUAUUCC",
    "endpoint": "apparent Kd",
    "unit label": "nM",
    "result number": 24.3
  },
  {
    "chain": "UAUAUAUAGUAAGGAUAUGUAAUUGUUUUAUAAACAGAAGGUACUGACAUGAGGAUCACCCAUGUUUUAGUGUGGGCAUGUAGA",
    "endpoint": "apparent Kd",
    "unit label": "nM",
    "result number": 78.8
  },
  {
    "chain": "CUCGUUAUGUUAGGAUAUGAUGCAUCCCGAUAAUCAGAAGGAACAUGAGGAUCACCCAUGUGACAUUUGGUGAAUACAAGCCAG",
    "endpoint": "apparent Kd",
    "unit label": "nM",
    "result number": 7.96
  },
  {
    "chain": "UGCUGGUGACAGCAUCCAUCAAAACAUGAGGAUCACCCAUGUAGAAGGCUGUACGGUUACCGUACAGAGGAUAUACAAUGAUGG",
    "endpoint": "apparent Kd",
    "unit label": "nM",
    "result number": 8.69
  },
  {
    "chain": "GUCAGCUCGUGAGGAUAUACAUGUGCUGGAUACAGCACUAUUGAGUUCACAUGAGGAUCACCCAUGUAGAAGGCACGAGCUGAU",
    "endpoint": "apparent Kd",
    "unit label": "nM",
    "result number": 28.1
  }
]

Hi! What's the reported apparent Kd for "AAAAAGCGAGGAUAUACAUGAGGAUCACCCAUGUCAAAAAAAUAGAAAAAAAUAAAAAGUAGAAGGCGCAAAAA" on MS2 coat protein? 58.4

Hi! What's the reported apparent Kd for "GACUGCUGAGGAUAUACAUGAGGAUCACCCAUGUGCUUCAGUAUCGAAAGAUACAUUGGUAGAAGGUAGUAGUC" on MS2 coat protein? 20.8

Hi! What's the reported apparent Kd for "CUGUUACAUGAGGAUCACCCAUGUCAGGAUAUUUCUAUAGCGUCCUGCCGACGCAUAGAAAGAAGGGAUGGUGA" on MS2 coat protein? 83.8

Hi! What's the reported apparent Kd for "ACACUACAUGAGGAUCACCCAUGUCAGGAUAUCGAUAUCACAACUCAUCAACCUCACUCGAGAAGGGACACAUA" on MS2 coat protein? 23.8

Hi! What's the reported apparent Kd for "CGAUGUUAUGUCAGGAUAUGCAUUGCGAAAGCGAUGCAGAAGGGACAUGAGGAUCACCCAUGUCCUAACCAUCG" on MS2 coat protein? 18.8

Hi! What's the reported apparent Kd for "CGAGUUUUUGAGAAGGCAUAUUAUAUUAUACCACAUGUUUACAUGAGGAUCACCCAUGUUUCCUAUGAGGAUAUCAGAAUGUCG" on MS2 coat protein? 7.33

Hi! What's the reported apparent Kd for "GGUGGACAUGAGGAUCACCCAUGUGAGGAUAUCGGCUGGUACGUGUUGGCUGGCAUCUCGAGAAGGCACAUCGU" on MS2 coat protein? 135

Hi! What's the reported apparent Kd for "GGAUUACAUGAGGAUCACCCAUGUGAGGAUAUCGAUGUCCCUAGGAGCGUGCGGGACUCGAGAAGGCACUUGGA" on MS2 coat protein? 234

Hi! What's the reported apparent Kd for "ACUUAUGAAGGAUAUACUAGCGACAUGCACUCAACACACGCACAUGAGGAUCACCCAUGUAGAAGGUCAAACAU" on MS2 coat protein? 22.4

Hi! What's the reported apparent Kd for "GUGGUACAUGAGGAUCACCCAUGUCAGGAUAUCGUGUGUUUUUUUUCGGCCGCGCGUGCGAGAAGGGACGUCUU" on MS2 coat protein? 19.4

Hi! What's the reported apparent Kd for "CUAUCGUUGCAGAAGGUUAAAUAAUUUCUCAUCUUGUUUACAUGAGGAUCACCCAUGUAUUUGUUGAAGGAUAUGCAAGUGUUG" on MS2 coat protein? 11

Hi! What's the reported apparent Kd for "CCCUAGGGAGGAUAUCCAAUAUAUGACAUGAGGAUCACCCAUGUUUCCACUCGUACCUCCGGAGAAGGCCCAUCCC" on MS2 coat protein? 24.5

Hi! What's the reported apparent Kd for "UUUAGUUUAGGAUAUGUAGACAUUAACAUGAGGAUCACCCAUGUAGAUCCUGAAUUGGCUACAGAAGGGAGCAUUU" on MS2 coat protein? 314

Hi! What's the reported apparent Kd for "GGAUCGAGUGUGAGGAUAUGCUGGUCCUUGGAUCAGCAGAAGGCACAUGAGGAUCACCCAUGUGAAUACGGUCC" on MS2 coat protein? 165

Hi! What's the reported apparent Kd for "GGAUAGGACAGAGGAUAUACCGAUAGGAGAUACUAUCGACUAUUCCUCACAUGAGGAUCACCCAUGUAGAAGGCUGUCCUAUCG" on MS2 coat protein? 58.1

Hi! What's the reported apparent Kd for "AAGAAGUCAGGAUAUGCAUGGCGGGACUUGCGUCGUGGCGUGCAGAAGGGACAUGAGGAUCACCCAUGUAAAGA" on MS2 coat protein? 41.7

Hi! What's the reported apparent Kd for "CCUGAGUGUCUAGGAUAUGCAUACCCGAGCUUUGCAGAAGGAGACAUGAGGAUCACCCAUGUGGACUUGGCAGGUCUCGCACCA" on MS2 coat protein? 7.59
